# Test system: Fibroblast
# MEASUREMENT_PROTOCOL: Multiplex assay against human fibroblast
# Assay type: toxicity, cell-based
# RECORDED_CONDITIONS: 12 h, 10 µM, compound concentration 10 uM, replicate 2
ENDPOINT: Population Membrane Permeable-Phenotype (%)

| COMPOUND | OBSERVED_VALUE |
| --- | --- |
| Cc1ccccc1C(=O)Nc1ccc(C(=O)N2CCCC(N(C)C)c3ccccc32)cc1.Cl (stereo not given) | 4 |
| CC(C)(C)c1ccc(S(=O)(=O)Nc2ccc(Cl)cc2C(=O)c2cc[n+]([O-])cc2)cc1 | 8 |
| N[C@@]1(C(=O)O)CO[C@H]2[C@H](C(=O)O)[C@H]21 | 4 |
| CCCC(CCC)C(=O)O | 4 |
| c1cc(OCCCN2CCCCC2)ccc1CN1CCCCC1 | 12 |
